B1: Homeobox protein cut-like 2, residues 895 to 963; numbered along this chain, O14529 (parent)
chain: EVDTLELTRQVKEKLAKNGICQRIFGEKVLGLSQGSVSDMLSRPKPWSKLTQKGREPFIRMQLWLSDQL

variants of: B1; experiment: abundance fitness (aPCA) (normalised: wild type 0, dead -1); higher = more abundant; growth selection in yeast, the domain comes from the species named; conditions: Homo sapiens
Classify as follows. Reported abundance fitness greater than or equal to -0.2: rule met. Reported abundance fitness below: rule not met.

>  <VARIANT_IDENTIFIER>
I20R

>  <GROUP>
rule not met

$$$$
>  <VARIANT_IDENTIFIER>
K53Q

>  <GROUP>
rule met

$$$$
>  <VARIANT_IDENTIFIER>
W47G

>  <GROUP>
rule not met

$$$$

Does the reported abundance fitness for L7A fall at or above the -0.2 mark?
rule met

Does the reported abundance fitness for L69D fall at or above the -0.2 mark?
rule met

Does the reported abundance fitness for L7H fall at or above the -0.2 mark?
rule not met

Does the reported abundance fitness for R23V fall at or above the -0.2 mark?
rule met

Does the reported abundance fitness for M40H fall at or above the -0.2 mark?
rule not met

Does the reported abundance fitness for F25G fall at or above the -0.2 mark?
rule not met

Does the reported abundance fitness for T8K fall at or above the -0.2 mark?
rule met

Does the reported abundance fitness for G35I fall at or above the -0.2 mark?
rule not met

Does the reported abundance fitness for D39R fall at or above the -0.2 mark?
rule not met

Does the reported abundance fitness for S33P fall at or above the -0.2 mark?
rule met
